# System: A549
# EXPERIMENT: Antiproliferative activity against human A549 cells assessed as cell viability after 72 hrs by MTT assay
# Type: functional, cell-based
# CONDITION_DETAILS: A549, 72 h
READOUT_KIND: IC50 (µM)

> print(dat)
                                   compound  readout.kind  measured.value
1  CC(C)(C)OC(=O)n1cc(CNC(=S)N2CCCCC2)c2ccccc21          IC50            60.1
2    Brc1ccc(NC2=NCc3c([nH]c4ccccc34)S2)cc1          IC50              32
3  CC(C)(C)OC(=O)n1cc(CNC(=S)Nc2ccc([N+](=O)[O-])cc2)c2ccccc21          IC50            11.5
4  CO[C@@H]1N(C(=O)OC(C)(C)C)c2ccccc2[C@@]12CN=C(Nc1ccc(Cl)cc1)S2 (racemic)          IC50            16.5
5  CC(C)(C)OC(=O)n1cc(CNC(=S)Nc2ccc(C(F)(F)F)cc2)c2ccccc21          IC50               4

[P] CO[C@H]1N(C(=O)OC(C)(C)C)c2ccccc2[C@@]12CN=C(Nc1ccc(F)cc1)S2 (racemic)
[Q] c1ccc2c3c([nH]c2c1)SC(N1CCOCC1)=NC3
INPUT: Smaller IC50 value? Options are P and Q Write down the label attached to your selection.
OUTPUT: P
(P: 30 µM, Q: 62.9 µM)

[a] CO[C@@H]1N(C(=O)OC(C)(C)C)c2ccccc2[C@@]12CN=C(Nc1ccc(C)cc1)S2 (racemic)
[b] CON1c2ccccc2C2(CN=C(SC)S2)C1O (racemic)
[c] c1ccc2c3c([nH]c2c1)SC(NC1CCCCC1)=NC3
[d] CO[C@@H]1N(C(=O)OC(C)(C)C)c2ccccc2[C@@]12CN=C(Nc1ccc(C(F)(F)F)cc1)S2 (racemic)
[e] CC(C)(C)OC(=O)n1cc(CNC(=S)Nc2ccc(Cl)cc2)c2ccccc21
INPUT: Ascending by IC50, please. // ordering of labels required in reply
OUTPUT: e, d, a, c, b

[1] CSC(=S)NCc1cn(C(=O)OC(C)(C)C)c2ccccc12
[2] CO[C@@H]1N(C(=O)OC(C)(C)C)c2ccccc2[C@@]12CN=C(NC1CCCCC1)S2 (racemic)
INPUT: Smaller IC50 value? Options are 1 and 2 Write down the label attached to your selection.
OUTPUT: 1

[P] FC(F)(F)c1cc(NC2=NCc3c([nH]c4ccccc34)S2)cc(C(F)(F)F)c1
[Q] CO[C@H]1N(C(=O)OC(C)(C)C)c2ccccc2[C@@]12CN=C(Nc1ccccc1)S2 (racemic)
[R] Clc1ccc(NC2=NCc3c([nH]c4ccccc34)S2)cc1
INPUT: Falling order of IC50, please. // ordering of labels required in reply
OUTPUT: P, Q, R
